Tested on: Plasmodium yoelii
assay.summary: Antimalarial activity against multidrug-resistant Plasmodium yoelii in Swiss mice (Mus musculus) as reduced parasitaemia after 4 days at 96 mg/kg peroral dose
Type: functional
Set-up: scale not given: the % may be the effect or the level left
experimental.conditions: route oral
Recorded measurements of Activity, one per entry
Just so you know, I need the unit written after the number.

C=C(c1ccc(Cl)cc1)C1CCOC2(CCCCC2)OO1 (configuration not stated) = 24.69%
C=C(c1cccc2ccccc12)C1CCOC2(OO1)C1CC3CC(C1)CC2C3 (configuration not stated) = 38.27%

In the following, a different compound is considered.
Exam item: Would you kindly share the measured Activity for C=C(c1ccc(Cl)cc1)C1CCOC2(CCC(=O)CC2)OO1 (configuration not stated) ?
Marked response: 23.36%

----------
Tested on: Plasmodium yoelii
assay.summary: Antimalarial activity against multidrug-resistant Plasmodium yoelii in Swiss mice (Mus musculus) as reduced parasitaemia after 4 days at 96 mg/kg peroral dose
Assay type: functional
Set-up: scale not given: the % may be the effect or the level left
experimental.conditions: route oral
value.kind: Activity (%)
Numeric answer only, unit % assumed.

Exam item: Would you kindly share the measured Activity for C=C(c1ccccc1)C1CCOC2(CCC(=O)CC2)OO1 (centres undefined) ?
Marked response: 72.02

----------
Recorded measurements of Activity, one per entry
System: Plasmodium yoelii
assay.summary: Antimalarial activity against multidrug-resistant Plasmodium yoelii in Swiss mice (Mus musculus) as reduced parasitaemia after 4 days at 96 mg/kg peroral dose
Format: functional
Design: scale not given: the % may be the effect or the level left
experimental.conditions: route oral

C=C(c1ccc(-c2ccccc2)cc1)C1CCOC2(CCCCC2)OO1 (stereo not drawn) = 91.36%

Exam item: Provide value of Activity for this record tested with Plasmodium yoelii: C=C(c1cccc2ccccc12)C1CCOC(C)(C)OO1 (stereo not drawn)
Marked response: 70.37%

Exam item: Provide value of Activity for this record tested with Plasmodium yoelii: C=C(c1ccccc1)C1CCOC2(CCCC2)OO1 (stereo not drawn)
Marked response: 18.21%

Exam item: Provide value of Activity for this record tested with Plasmodium yoelii: C=C(c1ccc(Cl)cc1)C1CCOC(C)(C)OO1 (stereo not drawn)
Marked response: 48.77%

Exam item: Provide value of Activity for this record tested with Plasmodium yoelii: C=C(c1cccc2ccccc12)C1CCOC2(CCCCC2)OO1 (stereo not drawn)
Marked response: 17.16%

Exam item: Provide value of Activity for this record tested with Plasmodium yoelii: C=C(c1ccc(Cl)cc1)C1CCOC2(CCC(O)CC2)OO1 (stereo not drawn)
Marked response: 54.59%

----------
Recorded measurements of Activity, one per entry
Tested on: Plasmodium yoelii
assay.summary: Antimalarial activity against multidrug-resistant Plasmodium yoelii in Swiss mice (Mus musculus) as reduced parasitaemia after 4 days at 96 mg/kg peroral dose
Type: functional
Set-up: scale not given: the % may be the effect or the level left
experimental.conditions: route oral
Numeric answer only, unit % assumed.

Record excerpt, results attached:
C=C(c1ccc(-c2ccccc2)cc1)C1CCOC2(CCC(O)CC2)OO1 (configuration not stated) = 84.13
C=C(c1ccccc1)C1CCOC(C)(C)OO1 (configuration not stated) = 92.38

Exam item: Provide value of Activity for this record tested with Plasmodium yoelii: C=C(c1ccccc1)C1CCOC2(CCCCC2)OO1 (configuration not stated)
Marked response: 35.8

----------
Tested on: Plasmodium yoelii
assay.summary: Antimalarial activity against multidrug-resistant Plasmodium yoelii in Swiss mice (Mus musculus) as reduced parasitaemia after 4 days at 96 mg/kg peroral dose
Type: functional
Parameters: scale not given: the % may be the effect or the level left
experimental.conditions: route oral
value.kind: Activity (%)
Numeric answer only, unit % assumed.

Record excerpt, results attached:
C=C(c1ccc(Cl)cc1)C1CCOC2(OO1)C1CC3CC(C1)CC2C3 (centres undefined) = 58.38
C=C(c1ccc(-c2ccccc2)cc1)C1CCOC2(CCCC2)OO1 (centres undefined) = 64.38
C=C(c1ccc(-c2ccccc2)cc1)C1CCOC2(CCC(=O)CC2)OO1 (centres undefined) = 98.49
C=C(c1ccccc1)C1CCOC2(OO1)C1CC3CC(C1)CC2C3 (centres undefined) = 57.36
C=C(c1ccc(Cl)cc1)C1CCOC2(CCCC2)OO1 (centres undefined) = 27.16

Exam item: Would you kindly share the measured Activity for C=C(c1ccc(-c2ccccc2)cc1)C1CCOC(C)(C)OO1 (centres undefined) ?
Marked response: 98.22

Exam item: Would you kindly share the measured Activity for C=C(c1cccc2ccccc12)C1CCOC2(CCCC2)OO1 (centres undefined) ?
Marked response: 49.75

Exam item: Would you kindly share the measured Activity for C=C(c1ccc(-c2ccccc2)cc1)C1CCOC2(OO1)C1CC3CC(C1)CC2C3 (centres undefined) ?
Marked response: 44.78

Exam item: Would you kindly share the measured Activity for C=C(c1ccccc1)C1CCOC2(CCC(O)CC2)OO1 (centres undefined) ?
Marked response: 53.59
